system: human FPTase (Homo sapiens, UniProt P49354+P49356)
assay overview: In vitro inhibition of human farnesyl-protein transferase (FPTase)
test context: [3H]-FPP, 100 nM Ras-CVIM, 30 min, read-out: IC50 (inhibitory activity against human FPTase)
Where a name gives a salt, the structure may show the parent alone.
reported property: IC50

Hello, I am looking for reported IC50 with human FPTase (Homo sapiens, UniProt P49354+P49356) for N#Cc1ccc(Cn2cncc2CN2CCN(c3cccc(Cl)c3)CC2=O)cc1 [Example 1, hydrochloride] . Could you help?
≤ 10 µM
